Assay: Inhibition of cell growth in human H929R cells at 10 uM incubated for 48 hrs by CCK-8 assay relative to control
Type: functional
parameter_measured: inhibition at 10 µM (%)
Give the value, in units of %, as a plain number.

Recorded results for 4 compounds are shown here.
compound	units_of_measure	numeric_result
O=C1C2C3C=CC(C4CC34)C2C(=O)N1c1ccc(Cc2ccncc2)cc1 (centres undefined)	%	28.2
O=C1C2C3C=C(Br)C(O3)C2C(=O)N1c1ccc(Cc2ccncc2)cc1 (centres undefined)	%	51.7
CN1CCN(C(=O)C2C3C=CC(O3)C2C(=O)Nc2ccc(Cc3ccncc3)cc2)CC1 (centres undefined)	%	29.8
CN1CCN(C(=O)C2CCCCC2C(=O)Nc2ccc(Cc3ccncc3)cc2)CC1 (centres undefined)	%	17.2

Problem: Return inhibition at 10 µM for the following compound: O=C1C2C3CCC(C3)C2C(=O)N1c1ccc(Cc2ccncc2)cc1 (centres undefined)
Solution: 41.4

Problem: Answer with the recorded inhibition at 10 µM for the compound listed here: CN1CCN(C(=O)C2C3C=C(Br)C(O3)C2C(=O)Nc2ccc(Cc3ccncc3)cc2)CC1 (centres undefined)
Solution: 43.1

Problem: // fetch inhibition at 10 µM given entry O=C(NCCCO)C1C2C=CC(O2)C1C(=O)Nc1ccc(Cc2ccncc2)cc1 (centres undefined)
Solution: 21.2

Problem: Give recorded inhibition at 10 µM. O=C(NCCCO)C1CCCCC1C(=O)Nc1ccc(Cc2ccncc2)cc1 (centres undefined)
Solution: 6.9

Problem: Please indicate inhibition at 10 µM recorded for C[C@@]12C(=O)N(c3ccc(Cc4ccncc4)cc3)C(=O)[C@]1(C)[C@H]1CC[C@@H]2O1
Solution: 49.3
